Listing: log10 of Ki of selected compounds
Target: C-CBL (residues 46-435) (Homo sapiens, UniProt P22681)
Construct: Purified CBL-B (residues 36-427) and C-CBL (residues 46-435) proteins from baculovirus-infected insect cells; made in house; host or cells: baculovirus-infected insect cells
Sequence (P22681 46-435): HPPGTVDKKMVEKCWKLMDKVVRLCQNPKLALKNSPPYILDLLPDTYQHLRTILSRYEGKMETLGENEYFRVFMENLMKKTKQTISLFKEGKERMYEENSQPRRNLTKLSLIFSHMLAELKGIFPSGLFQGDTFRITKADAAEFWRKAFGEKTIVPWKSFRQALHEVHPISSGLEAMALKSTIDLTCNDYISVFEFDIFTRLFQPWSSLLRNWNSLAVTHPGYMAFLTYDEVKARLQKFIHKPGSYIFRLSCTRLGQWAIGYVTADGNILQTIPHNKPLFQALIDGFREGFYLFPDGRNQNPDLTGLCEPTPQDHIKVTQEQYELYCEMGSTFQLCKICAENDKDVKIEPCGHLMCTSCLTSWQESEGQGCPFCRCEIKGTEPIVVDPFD
Experiment: Ligand Displacement Assay (LDA), HTRF competitive binding against BODIPY-labeled fluorescent tracer, C-CBL
Conditions: geometric mean of the number of tests, read-out: C-CBL Ki (nM) GMean
Would you kindly interpret these values as log10 of Ki expressed in nM?

Please review the following examples before continuing.
log10 of Ki on C-CBL (residues 46-435) (Homo sapiens, UniProt P22681) for CC(=O)NC(C)c1nc(C(F)(F)F)cc2c(-c3cccc(C4(Cc5nncn5C)COC4)c3)n[nH]c12 (single isomer, unassigned) [Example M6] is 1.84

log10 of Ki on C-CBL (residues 46-435) (Homo sapiens, UniProt P22681) for `Cn1cnnc1CC1(c2cccc(-c3n[nH]c4ccc(Cl)cc34)c2)COC1` is 2.18

log10 of Ki on C-CBL (residues 46-435) (Homo sapiens, UniProt P22681) for C[C@@H](NC1CCCC1)c1nc(C(F)(F)F)cc2c(-c3cccc([C@H](c4nncn4C)C4CCC4)c3)n[nH]c12 (single isomer, unassigned) is 0.57

log10 of Ki on C-CBL (residues 46-435) (Homo sapiens, UniProt P22681) for C[C@@H](N[C@@H]1CC[C@@H]1O)c1nc(C(F)(F)F)cc2c(-c3cccc([C@H](c4nncn4C)C4CCC4)c3)n[nH]c12 (single isomer, unassigned) is 1.37

log10 of Ki on C-CBL (residues 46-435) (Homo sapiens, UniProt P22681) for C[C@@H](c1nc(C(F)(F)F)cc2c(-c3cccc([C@H](c4nncn4C)C4CCC4)c3)n[nH]c12)N1CC[C@H](O)C1 (single isomer, unassigned) [Example D70] is 1.68

---
log10 of Ki on C-CBL (residues 46-435) (Homo sapiens, UniProt P22681) for C[C@@H](O)CN[C@H](C)c1nc(C(F)(F)F)cc2c(-c3cccc([C@H](c4nncn4C)C4CCC4)c3)n[nH]c12 (single isomer, unassigned) is 1.15
